Test method notes: APR_HepG2_MitoMass_24hr: Apredica 24-hour HepG2 Assay for Mitochondrial Mass (AID 2282912)
Conditions used: high-content imaging, actives raise or lower the signal
Calls of active or inactive are those of the source. The calls were made as follows: active = hit-call score of the fitted dose curve at least 0.9, where 1 is the maximum; inactive = score below 0.9.
Labels: 1.0 for active, 0.0 for inactive

compound=CC1=CC(=O)CC(C)(C)C1 classification=0.0
compound="CCCCC(CC)COC(=O)CCCCCCCCC(=O)OCC(CC)CCCC (stereo not drawn)" classification=0.0
compound=CC[C@H](C)C(=O)O[C@H]1C[C@@H](C)C=C2C=C[C@H](C)[C@H](CC[C@@H]3C[C@@H](O)CC(=O)O3)[C@H]21 classification=1.0
compound=CNCc1ccc(NC(=O)c2c[nH]c3c2C(=O)CCC3)cc1 classification=0.0
compound=C1=CCCC=CCCC=CCC1 classification=0.0
compound=Clc1nc(Cl)c(Cl)c(Cl)c1Cl classification=1.0
compound=O=C(NS(=O)(=O)/C=C/c1ccccc1)c1ccc(F)cc1Cl classification=0.0
compound=C=CC(=C)CCC=C(C)C classification=0.0
compound=CC(C)=CCC/C(C)=C/CO classification=0.0
compound="CCOC(=O)COc1ccc2c(c1)CC(NCC(O)c1cccc(Cl)c1)CC2 (stereo not drawn)" classification=1.0
compound=CCCC(=O)OCC classification=0.0
compound=Cc1ccc(N)cc1O classification=0.0
compound=CCCCCCc1ccc(O)cc1O classification=1.0

###

Test method notes: BSK_3C_Vis: BioMAP Diversity Plus: 3C Assay for Morphology Visualization (AID 2283025);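 also: fitted both ways so gain or loss versus DMSO counts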;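 as to AC50: light microscopy image of cell morphology used as background control; cells imaged 24 h after dosing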
Conditions used: primary human endothelial cells (HUVEC)
Active and inactive are the calls of the source. Rule for the calls: active = hit-call score of the fitted dose curve at least 0.9, where 1 is the maximum; inactive = score below 0.9.
Measured metric: AC50

compound=O=C(O)c1cc(N=Nc2ccc(S(=O)(=O)Nc3ccccn3)cc2)ccc1O measured_metric=AC50 assay_result=inactive
compound=CN(C)c1ccc(Cc2ccc(N(C)C)cc2)cc1 measured_metric=AC50 assay_result=inactive
compound=O=C(OC[C@H]1O[C@@H](OC(=O)c2cc(O)c(O)c(OC(=O)c3cc(O)c(O)c(O)c3)c2)[C@H](OC(=O)c2cc(O)c(O)c(OC(=O)c3cc(O)c(O)c(O)c3)c2)[C@@H](OC(=O)c2cc(O)c(O)c(OC(=O)c3cc(O)c(O)c(O)c3)c2)[C@@H]1OC(=O)c1cc(O)c(O)c(OC(=O)c2cc(O)c(O)c(O)c2)c1)c1cc(O)c(O)c(OC(=O)c2cc(O)c(O)c(O)c2)c1 measured_metric=AC50 assay_result=inactive
compound="CCCCC(CC)COC(=O)CCCCCCCCC(=O)OCC(CC)CCCC (centres undefined)" measured_metric=AC50 assay_result=inactive
compound=Nc1ccc(Nc2ccccc2)cc1 measured_metric=AC50 assay_result=inactive
compound=Nc1nc2ncc(CNc3ccc(C(=O)N[C@@H](CCC(=O)O)C(=O)O)cc3)nc2c(=O)[nH]1 measured_metric=AC50 assay_result=inactive
compound=COc1ccc2sc(C(=O)Nc3nnn[nH]3)c(OC(C)C)c2c1 measured_metric=AC50 assay_result="21.9 µM (active)"
compound=CCc1cc(SCc2sc(-c3ccc(C(F)(F)F)cc3)nc2CN2CCN(c3ccc(OC)cc3)CC2)ccc1OCC(=O)O measured_metric=AC50 assay_result="14.5 µM (active)"
compound=COCCOc1cc2cc(C(=O)NC3CCN(C(C)C)CC3)n(CC(=O)Nc3ccc(Cl)cn3)c2cn1 measured_metric=AC50 assay_result=inactive
compound=CC(C)=CCC/C(C)=C/CO measured_metric=AC50 assay_result=inactive
compound=CC[C@H](C)C(=O)O[C@H]1C[C@@H](C)C=C2C=C[C@H](C)[C@H](CC[C@@H]3C[C@@H](O)CC(=O)O3)[C@H]21 measured_metric=AC50 assay_result="28.3 µM (active)"
compound=CCOc1cccc(-n2cc(C(=O)N3CCN(c4cc(C(=O)O)c5ccccc5c4)CC3)nc2-c2ccc(C)cc2)c1 measured_metric=AC50 assay_result="38 µM (active)"
compound=CCCCCCc1ccc(O)cc1O measured_metric=AC50 assay_result="39.8 µM (active)"
compound=Cc1[nH]cnc1C[C@H]1CCc2c(C)c3ccccc3n2C1=O measured_metric=AC50 assay_result="18.4 µM (active)"
compound=Cn1cnc([N+](=O)[O-])c1Sc1ncnc2nc[nH]c12 measured_metric=AC50 assay_result=inactive
compound="CC/C(=C\\C(=N/O)C(N)=O)C(C)[N+](=O)[O-] (centres undefined)" measured_metric=AC50 assay_result=inactive
compound="CCOC(=O)COc1ccc2c(c1)CC(NCC(O)c1cccc(Cl)c1)CC2 (centres undefined)" measured_metric=AC50 assay_result="34.2 µM (active)"
compound=COc1cccc(-c2ccc(/C=C\CN3CCCCCC3)cc2Cl)c1 measured_metric=AC50 assay_result="14.9 µM (active)"
compound=COC(=O)c1ccccc1O measured_metric=AC50 assay_result=inactive

###

Experimental target: Glucocorticoid receptor (Homo sapiens) (UniProt P04150)
Sequence (P04150 whole entry, looked up): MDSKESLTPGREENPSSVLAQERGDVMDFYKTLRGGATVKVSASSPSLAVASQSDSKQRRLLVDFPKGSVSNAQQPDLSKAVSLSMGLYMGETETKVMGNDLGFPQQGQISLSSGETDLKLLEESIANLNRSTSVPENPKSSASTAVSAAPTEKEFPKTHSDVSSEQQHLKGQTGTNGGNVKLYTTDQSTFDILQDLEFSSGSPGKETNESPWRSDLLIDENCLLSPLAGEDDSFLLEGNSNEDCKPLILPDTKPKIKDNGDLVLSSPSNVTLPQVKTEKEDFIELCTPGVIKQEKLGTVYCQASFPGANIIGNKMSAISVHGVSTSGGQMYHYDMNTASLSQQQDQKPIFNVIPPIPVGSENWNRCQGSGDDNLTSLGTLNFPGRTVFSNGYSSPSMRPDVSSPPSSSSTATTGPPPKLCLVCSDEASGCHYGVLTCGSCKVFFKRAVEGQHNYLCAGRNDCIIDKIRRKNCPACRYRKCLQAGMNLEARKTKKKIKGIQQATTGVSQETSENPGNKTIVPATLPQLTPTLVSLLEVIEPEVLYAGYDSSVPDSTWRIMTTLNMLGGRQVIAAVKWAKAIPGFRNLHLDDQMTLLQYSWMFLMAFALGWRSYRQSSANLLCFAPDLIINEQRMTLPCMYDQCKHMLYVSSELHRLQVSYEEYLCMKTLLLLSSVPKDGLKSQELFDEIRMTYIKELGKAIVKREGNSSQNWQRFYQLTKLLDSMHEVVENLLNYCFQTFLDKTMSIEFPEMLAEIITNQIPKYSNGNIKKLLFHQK
Test method notes: NVS_NR_hGR: NovaScreen (NVS) Nuclear Receptor Binding Assay for human Glucocorticoid Receptor (GR) (AID 2283363)
Inconclusive results are not listed. Active and inactive are the calls of the source. How the source made its calls: active means hit-call score of the fitted dose curve at least 0.9, where 1 is the maximum; inconclusive means response in the unintended direction; inactive means score below 0.9.
Classes used: true (active), false (inactive)

compound=CCOc1cccc(-n2cc(C(=O)N3CCN(c4cc(C(=O)O)c5ccccc5c4)CC3)nc2-c2ccc(C)cc2)c1 classification=true
compound=Oc1ccc2c(c1)-c1ccccc1C2 classification=false
compound="COc1ccc(-n2nc(C(F)F)cc2-c2ccc(S(C)=O)cc2)cc1 (centres undefined)" classification=true
compound=CCC(C)(C)C(=O)O[C@H]1C[C@@H](C)C=C2C=C[C@H](C)[C@H](CC[C@@H]3C[C@@H](O)CC(=O)O3)[C@H]21 classification=true
compound="CCOC(=O)c1ccc(C2CCC(NC[C@H](O)COc3ccc(O)c(NS(C)(=O)=O)c3)CC2)cc1 (some centres undefined)" classification=false
compound=CCCCCCc1ccc(O)cc1O classification=true
compound=CCc1cc(SCc2sc(-c3ccc(C(F)(F)F)cc3)nc2CN2CCN(c3ccc(OC)cc3)CC2)ccc1OCC(=O)O classification=true
compound=Cn1c(=O)cc(Oc2ccc(F)cc2F)c2cnc(NCC(C)(C)O)nc21 classification=true
compound=O=P(OC(CCl)CCl)(OC(CCl)CCl)OC(CCl)CCl classification=true

###

Experimental target: Estrogen receptor (Homo sapiens)
Test method notes: OT_ERa_GFPERaERE_0480: Odyssey Thera (OT) 8-hour HeLa Transcription Induction Assay for Estrogen Receptor (AID 2283381)
Activity calls are given as the source filed them. How the source made its calls: active means hit-call score of the fitted dose curve at least 0.9, where 1 is the maximum; inactive means score below 0.9.
Labels: 1 for active, -1 for inactive

compound=CCCCCCCCO classification=-1
compound="CCOC(=O)COc1ccc2c(c1)CC(NCC(O)c1cccc(Cl)c1)CC2 (stereo not drawn)" classification=1
compound=CCCC(=O)OCC classification=-1
compound=COC(=O)CC(=O)OC classification=-1
compound=O=P(OC(CCl)CCl)(OC(CCl)CCl)OC(CCl)CCl classification=-1
compound=COc1cccc(-c2ccc(/C=C\CN3CCCCCC3)cc2Cl)c1 classification=-1
compound=O=C(NS(=O)(=O)/C=C/c1ccccc1)c1ccc(F)cc1Cl classification=-1
compound=CCC(C)(C)C(=O)O[C@H]1C[C@@H](C)C=C2C=C[C@H](C)[C@H](CC[C@@H]3C[C@@H](O)CC(=O)O3)[C@H]21 classification=-1

###

Experimental target: human Neurokinin, NK2 Receptor, TACR2 (gene 6865) (UniProt P21452)
Sequence (P21452 whole entry, looked up): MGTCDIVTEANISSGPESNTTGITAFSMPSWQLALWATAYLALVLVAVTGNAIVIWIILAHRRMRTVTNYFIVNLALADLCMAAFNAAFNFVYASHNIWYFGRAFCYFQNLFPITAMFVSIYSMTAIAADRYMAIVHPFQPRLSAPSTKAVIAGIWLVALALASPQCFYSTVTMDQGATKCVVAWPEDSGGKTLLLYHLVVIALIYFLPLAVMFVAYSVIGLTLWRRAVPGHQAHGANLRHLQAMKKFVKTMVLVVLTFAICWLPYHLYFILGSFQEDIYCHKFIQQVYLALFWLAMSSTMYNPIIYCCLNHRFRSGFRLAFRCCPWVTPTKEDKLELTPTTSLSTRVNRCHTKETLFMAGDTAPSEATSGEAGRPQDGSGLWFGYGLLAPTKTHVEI
Test method notes: NVS_GPCR_hNK2: NovaScreen (NVS) G Protein-Coupled Receptor Assay for human Neurokinin, NK2 Receptor (AID 2283278);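 also: actives reduce bound radioligand signal relative to DMSO baseline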
Inconclusive results are not listed. Activity calls are given as the source filed them. Rule for the calls: active = hit-call score of the fitted dose curve at least 0.9, where 1 is the maximum; inconclusive = response in the unintended direction; inactive = score below 0.9.
Outcome codes: active, inactive

molecule=O=P(OC(CCl)CCl)(OC(CCl)CCl)OC(CCl)CCl classification=active
molecule=CCn1nc(Cc2ccccc2)cc1C1CCN(C[C@H]2C[C@H](N(C)[C@@H](C(=O)O)C(C)C)C[C@@H]2c2cccc(F)c2)CC1 classification=active
molecule=On1ccccc1=S classification=active
molecule="CCOC(=O)c1ccc(C2CCC(NC[C@H](O)COc3ccc(O)c(NS(C)(=O)=O)c3)CC2)cc1 (stereo partly drawn)" classification=active
molecule="CNS(=O)(=O)c1cc(C(=O)N2CCC(CCN3C4CCC3CC(n3c(C)nc5ccccc53)C4)(c3cccc(F)c3)CC2)c(Cl)cc1F (stereo not drawn)" classification=active
molecule=COc1cccc(-c2ccc(/C=C\CN3CCCCCC3)cc2Cl)c1 classification=inactive
molecule=CN(C)c1ccc(N=NS(=O)(=O)O)cc1 classification=active
molecule=Cc1[nH]cnc1C[C@H]1CCc2c(C)c3ccccc3n2C1=O classification=inactive
molecule=Cn1c(=O)cc(Oc2ccc(F)cc2F)c2cnc(NCC(C)(C)O)nc21 classification=inactive
molecule=CCOc1cccc(-n2cc(C(=O)N3CCN(c4cc(C(=O)O)c5ccccc5c4)CC3)nc2-c2ccc(C)cc2)c1 classification=active
molecule=COCCOc1cc2cc(C(=O)NC3CCN(C(C)C)CC3)n(CC(=O)Nc3ccc(Cl)cn3)c2cn1 classification=inactive
molecule=CC(C)=CCCC(C)=CC=O classification=inactive
molecule=O=C(O)c1cccc(N(Cc2cccnc2)c2ccc(OC(F)F)c(OC(F)F)c2)c1 classification=inactive

These entries and their values trace back to PubChem BioAssay (EPA / NIEHS).
